Hi there, I'd appreciate the recorded H435Q-Fc SHP-77 Internalization FOI for every entry that follows.
- study_target: T1, human DLL3 on cells (HEK293T cells expressing human DLL3; SHP-77 cells) (human, UniProt Q9NYJ7 27-618)
- T1 sequence (looked up): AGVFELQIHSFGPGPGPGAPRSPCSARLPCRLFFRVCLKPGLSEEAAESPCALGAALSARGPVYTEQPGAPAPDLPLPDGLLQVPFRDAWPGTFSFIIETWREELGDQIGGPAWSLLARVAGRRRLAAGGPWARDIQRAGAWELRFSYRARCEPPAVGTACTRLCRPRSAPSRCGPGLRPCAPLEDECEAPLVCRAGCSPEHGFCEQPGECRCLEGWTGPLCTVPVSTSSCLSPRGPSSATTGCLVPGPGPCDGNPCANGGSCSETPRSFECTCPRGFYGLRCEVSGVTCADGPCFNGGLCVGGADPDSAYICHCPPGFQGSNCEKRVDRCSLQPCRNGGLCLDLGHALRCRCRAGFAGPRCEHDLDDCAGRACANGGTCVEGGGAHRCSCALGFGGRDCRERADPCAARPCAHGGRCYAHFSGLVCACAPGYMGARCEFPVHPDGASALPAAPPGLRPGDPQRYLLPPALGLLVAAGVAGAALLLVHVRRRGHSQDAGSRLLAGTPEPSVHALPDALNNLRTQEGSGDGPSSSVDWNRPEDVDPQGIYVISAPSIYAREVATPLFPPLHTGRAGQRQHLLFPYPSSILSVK
- assay: cell-based or functional assay
Number in fold over isotype, nothing else.

# input Dear colleague, I am looking for the recorded H435Q-Fc SHP-77 Internalization FOI of the following binder: Clone 126 VHH-Fc, H435Q-Fc format (Fc fusion, not shown: hinge and human IgG1 Fc with H435Q (EU)) QVQLVESGGGMVQPGGSLRLSCAASGITFSMYSMSWYRQPPGKQRELVAATTTFGSTNYADSVKGRFTISRDNAKNTVYLQMNSLKPEDTAVYLCNARFTSEEYWGQGTQVTVSS
# output 1.19

# input Fill in the blank: the reported H435Q-Fc SHP-77 Internalization FOI of Clone 24 VHH-Fc, H435Q-Fc format (Fc fusion, also called 24 (H435Q-Fc); not shown: hinge and human IgG1 Fc with H435Q (EU)) QVQYVESGGGLVQPGGSLRLSCAASGFTFSSYRINWYRQPPGKGRELVGSITDTGSTNYADSVKGRFTISRDNAKNTVYLQMSSLKPEDTAVYYCRAPTIAAYWGQGTQVTVSS is ____.
# output 1.19

# input Entry Clone 100 VHH-Fc, H435Q-Fc format (Fc fusion, also called 100 (H435Q-Fc); not shown: hinge and human IgG1 Fc with H435Q (EU)) QVQLVESGGGSVQPGGSLRLSCAASGIVFNSDVMGWYRQVPGKPRELVATITGGGSTNYATSVKGRFTISRDNAKNTVYLQMNSLRPEDTAVYYCNGRRGDSMLAFWAQGTQVTVSS : reported H435Q-Fc SHP-77 Internalization FOI = ?
# output 1.19

# input Report H435Q-Fc SHP-77 Internalization FOI for Clone 107 VHH-Fc, H435Q-Fc format (Fc fusion, not shown: hinge and human IgG1 Fc with H435Q (EU)) QVQLVESGGGLVQAGDSLRLSCVASDRTFSSYAVGWFRQAPGKEREFVAAISWNGGRTLYTDSVTGRFTISRDNAKSTVYLQMNGLKPEDTAVYYCAARPAAPTRRLEYDYWGQGTQVTVSS please.
# output 1.27

# input Any idea what H435Q-Fc SHP-77 Internalization FOI was measured for Clone 186 VHH-Fc, H435Q-Fc format (Fc fusion, also called 186 (H435Q-Fc); not shown: hinge and human IgG1 Fc with H435Q (EU)) QVQVVESGGGLVQPGGSLTLSCAASGFDFSTYTVNWYRQAPGKEREKVARISSTGTTTNYANSAKGRFTLSRDNAKNRVYLQMNNLKPEDTAVYFCNFERFDSNYWGQGTQVTVSS ?
# output 1.18
